Origin of the recorded values: paper PMC6502667

TESTED TARGET: human plasminogen (human, UniProt P00747 20-810)
Sequence (P00747 20-810): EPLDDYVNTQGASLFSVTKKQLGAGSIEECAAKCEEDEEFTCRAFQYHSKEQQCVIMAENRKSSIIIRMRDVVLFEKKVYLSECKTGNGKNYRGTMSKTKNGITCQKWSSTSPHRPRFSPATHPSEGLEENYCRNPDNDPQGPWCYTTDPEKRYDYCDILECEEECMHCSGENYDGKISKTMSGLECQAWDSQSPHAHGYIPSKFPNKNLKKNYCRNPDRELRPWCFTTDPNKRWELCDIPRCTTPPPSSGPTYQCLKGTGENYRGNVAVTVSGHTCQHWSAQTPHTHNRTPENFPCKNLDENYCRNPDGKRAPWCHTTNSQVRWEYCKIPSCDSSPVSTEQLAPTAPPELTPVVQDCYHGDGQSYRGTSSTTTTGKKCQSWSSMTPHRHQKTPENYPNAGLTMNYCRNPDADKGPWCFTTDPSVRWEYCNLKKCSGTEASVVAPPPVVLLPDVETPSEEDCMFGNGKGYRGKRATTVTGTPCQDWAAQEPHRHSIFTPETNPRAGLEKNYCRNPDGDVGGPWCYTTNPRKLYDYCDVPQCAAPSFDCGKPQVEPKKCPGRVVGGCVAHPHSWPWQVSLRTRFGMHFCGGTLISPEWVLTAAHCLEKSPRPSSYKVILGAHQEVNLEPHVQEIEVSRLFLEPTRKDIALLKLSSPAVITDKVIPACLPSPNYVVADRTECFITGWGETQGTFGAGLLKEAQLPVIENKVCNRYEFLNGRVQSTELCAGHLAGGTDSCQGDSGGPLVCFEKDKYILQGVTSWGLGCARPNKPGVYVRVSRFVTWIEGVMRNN
ASSAY COMMENT: SPR
OUTCOME MEASURE: Kd

BINDER	OUTCOME MEASURE	RESULT
VEK75_(AP53), peptide of PAM_(AP53) residues 97-171 (Paper number minus 12 gives the entry number. N-terminal GS left by thrombin cleavage is omitted) VEKLTADAELQRLKNERHEEAELERLKSERHDHDKKEAERKALEDKLADKQEHLNGALRYINEKEAEAKEKEAEQ	Kd	0.7 nM
